- Test system: AncSZ;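 note: 11-residue human phosphosite peptides and single-mutation variants displayed on the E. coli surface, counted by deep sequencing, each peptide's frequency after selection divided by its frequency in the unselected input library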;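 note: frequency after pTyr selection over input frequency; kinase dosed for 20-30% of maximal phosphorylation in three min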
- Assay info: phosphorylation enrichment, bacterial display (enrichment ratio); higher = better substrate or ligand; peptides without Tyr show the background
Rule: phosphorylation enrichment under 0.9 gives False, otherwise True.

> print(dat)
                   primary.sequence  discrete.label
 1  EPFELYCEMGS [CBL_Y371_Q367P_YF]            True
 2         VSNFNYFYHRE [KCNA1_Y413]            True
 3     RSDEDYLCREE [POR_Y573_Y575C]            True
 4  VIIVLYFSLWK [SLC6A2_Y249_V245I]           False
 5     TAALWYIYLHT [ENG_Y612_S615L]            True
 6        ETKAFYPEEIS [HSPA1A_Y115]            True
 7         PSVVAYPKRSQ [MARK3_Y432]           False
 8           YLEKYYKFGSR [NNMT_Y25]           False
 9          GITVAYTIPKK [UBA5_Y372]           False
10        ALKKPYGVLFK [RPF2_Y59_YF]           False
11   ETWHNYHKFDS [MATR3_Y243_S240W]           False
12    CTTIHYNFMCN [TP53_Y234_Y236F]           False
13  FIATQYSLCPR [LBR_Y166_R169C_YF]            True
14         WQQQSYLDSGI [CTNNB1_Y30]           False
